# targetSystem: TgCBS (Toxoplasma gondii, UniProt A0A125YSJ9)
# Construct: mainly dimer with some tetramer; no heme, PLP at Lys56
# Sequence (A0A125YSJ9 1-514): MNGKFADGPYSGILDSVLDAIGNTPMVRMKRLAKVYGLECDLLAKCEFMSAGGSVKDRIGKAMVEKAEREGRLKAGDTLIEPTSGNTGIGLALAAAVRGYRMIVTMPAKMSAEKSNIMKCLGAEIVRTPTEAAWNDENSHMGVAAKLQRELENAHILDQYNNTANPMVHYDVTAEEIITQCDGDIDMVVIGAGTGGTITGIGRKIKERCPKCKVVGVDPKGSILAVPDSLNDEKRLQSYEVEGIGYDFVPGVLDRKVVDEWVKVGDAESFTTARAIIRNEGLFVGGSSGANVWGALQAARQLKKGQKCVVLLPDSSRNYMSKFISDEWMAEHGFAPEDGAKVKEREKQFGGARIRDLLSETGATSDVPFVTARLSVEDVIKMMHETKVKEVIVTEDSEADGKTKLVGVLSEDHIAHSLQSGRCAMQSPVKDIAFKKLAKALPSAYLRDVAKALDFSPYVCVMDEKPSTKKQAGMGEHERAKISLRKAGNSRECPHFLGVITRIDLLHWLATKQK
# testDetails: lead acetate H2S assay, substrate competition
recordedEndpoint: IC50 (mM)

cpdSmiles	recordedEndpoint	valueMeasured
N[C@@H](CO)C(=O)O	IC50	6.7
